# MEASUREMENT_NOTES: Solubility assessment of Sample 1 (majorly Form 1) in 24 solvent systems
# Assay type: physicochemical
# CONDITION_INFO: acetonitrile, 50 °C, organic solvent or mixture, thermodynamic from solid, Acetonitrile; sample ID A19; read-out: Solubility assessment 10 vol.
# Description: Solubility assessment was carried out on the Sample 1 of RAD1901-2HCl (majorly Form 1 shown by XRPD) in 24 solvent systems in HPLC vials (sample IDs: A1 to A24). […] After each addition of solvent, the system was stirred for 5 to 10 minutes at 25° C., then shaken at 50° C. for 5 to 10 minutes, and observations made. […] All solids recovered from maturation, cooling and evaporation experiments were analyzed by high resolution XRPD.
MEASURE_NAME: solubility

*Q* What solubility value was documented for this compound, CCNCCc1ccc(CN(CC)c2cc(OC)ccc2[C@@H]2CCc3cc(O)ccc3C2)cc1.Cl.Cl ?
*A* < 100 mg/mL
